FYI, the data here is from patent US20260049134A1.

Target: T1, ANXA1
T1 construct: coated protein in the ELISA; also called ANXA1-His (R&D Systems)
T1 chain: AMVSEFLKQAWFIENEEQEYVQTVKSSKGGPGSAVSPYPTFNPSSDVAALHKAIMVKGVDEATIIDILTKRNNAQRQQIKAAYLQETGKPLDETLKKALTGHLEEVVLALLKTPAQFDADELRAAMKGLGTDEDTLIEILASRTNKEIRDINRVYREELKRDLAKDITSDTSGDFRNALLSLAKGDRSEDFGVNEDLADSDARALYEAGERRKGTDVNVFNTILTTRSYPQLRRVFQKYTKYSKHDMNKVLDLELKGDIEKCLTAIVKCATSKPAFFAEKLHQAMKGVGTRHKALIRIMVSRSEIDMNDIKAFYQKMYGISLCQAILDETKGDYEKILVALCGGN
Experiment: ELISA on coated ANXA1-His, 150 ng IgG1; None 0.098
PARAMETER: ELISA Absorbance (405 nm-570 nm)
Enter a number only.

Field: example entries. Status: answers known.
| BINDER | ELISA Absorbance (405 nm-570 nm) |
| --- | --- |
| HW-113 chimeric rabbit-human IgG1 LA/LA/PG (antibody, V domains shown, Fc-silenced (L234A/L235A/P329G) IgG1, lambda; Alexa Fluor 647-labeled in single-step flow cytometry) VH: QKQLVESGGGLVQPGGSLTLTCTVSGFSLNKYYMGWFRQAPGKGLEWIGVISRSGDTYYSSWAKGRFTISKASTTVDLRITSPTTEDTATYFCARDASSPGFHGDRLDLWGQGTLVTVSS VL: SFVLTQPASVQVNLGQTVSLTCTADTLSRSYASWYQQKPGQAPVLLIYRDTSRPSGVPDRFSGSSSGNTATLTISGAQAGDEADYYCATSDGIGSNYLWVFGGGTQLTVTG | 0.073 |
| HW-70 chimeric rabbit-human IgG1 LA/LA/PG (antibody, V domains shown, Fc-silenced (L234A/L235A/P329G) IgG1, lambda; Alexa Fluor 647-labeled in single-step flow cytometry; Cluster C-1) VH: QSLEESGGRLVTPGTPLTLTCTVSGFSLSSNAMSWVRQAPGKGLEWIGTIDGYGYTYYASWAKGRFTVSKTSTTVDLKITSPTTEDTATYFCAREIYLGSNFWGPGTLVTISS VL: SFVLTQPASVQVNLGQTVSLTCTADTLSRRYASWYQQKPGQAPVLLIYRDTSRPSGVPDRFSGSSSGNTATLTISGAQAGDEADYYCATADGSGSSYQFVFGGGTQLTVTG | 0.102 |
| HW-1 chimeric rabbit-human IgG1 LA/LA/PG (antibody, V domains shown, Fc-silenced (L234A/L235A/P329G) IgG1, lambda; Alexa Fluor 647-labeled in single-step flow cytometry; Prototype of cluster C-1) VH: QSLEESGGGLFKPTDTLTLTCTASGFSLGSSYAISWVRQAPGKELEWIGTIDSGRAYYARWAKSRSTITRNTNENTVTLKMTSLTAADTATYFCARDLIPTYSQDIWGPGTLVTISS VL: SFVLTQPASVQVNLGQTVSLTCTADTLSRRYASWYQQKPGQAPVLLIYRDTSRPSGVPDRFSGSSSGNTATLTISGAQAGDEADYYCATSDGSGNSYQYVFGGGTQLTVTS | 0.085 |

Okay, now this binder:
The binder listed as HW-8 chimeric rabbit-human IgG1 LA/LA/PG (antibody, V domains shown, Fc-silenced (L234A/L235A/P329G) IgG1, kappa; Alexa Fluor 647-labeled in single-step flow cytometry; Cluster C-45) VH: QSLEESGGRLVTPGTPLTLTCTVSGFSLSSYAMSWVRQAPGKGLEWIGAISTGGSTTYASWAKGRFTISKTSSTTVDLKMTSLTTEDTATYFCVRHFRLWGPGTLVTISS VL: QVLTQTPSSVSAAVGGTVTIKCQASQSIGSALAWFQQKPGQRPKLLIYRASNLASGVPSRFKGSGSGTEFALTISGVQREDAATYYCLGGAAAVWAFGAGTNVEIKR shows ELISA Absorbance (405 nm-570 nm) equal to 0.077
